B1: PCDHGA10 (parent)
chain: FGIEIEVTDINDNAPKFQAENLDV

Variants of: B1
Assay: protein stability index of a GFP-peptide fusion (GPS, HEK-293T) (PSI 1-6); higher = more stable;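 also: lentivirally expressed fusions sorted by FACS into six bins by GFP to DsRed ratio, PSI derived from sequencing read proportions per bin multiplied by bin number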
Conditions: c terminus: a fixed tail appended

ORDERED_RESIDUES	protein stability index
FGIEIEVTDINQNAPKFQAENLDV	2.71
FGIEIEVTDINNNAPKFQAENLDV	2.15
FGIEIEVTDINTNAPKFQAENLDV	1.99
FGIEIEVTDINDNDPKFQAENLDV	3.89
FLIEIEVTDINDNAPKFQAENLDV	2.17
FGIEIEVTDANDNAPKFQAENLDV	3.61
FGIEIEVTDINDNAPKFQAENLAV	2.3
FGIEIEVTDINDNMPKFQAENLDV	2.42
FGIEIEVPDINDNAPKFQAENLDV	3.75
FGIEIEYTDINDNAPKFQAENLDV	2.93
FGIEIEVTDINDNSPKFQAENLDV	3.13
WGIEIEVTDINDNAPKFQAENLDV	2.54
KGIEIEVTDINDNAPKFQAENLDV	4.39
FGIEIEVTDINDNAPKFQAEDLDV	3.65
FGIEIEVTDINDNAPKFQAENLVV	2.56
FGQEIEVTDINDNAPKFQAENLDV	4.79
FGIEIEVTDINDNAPKFQAERLDV	2.07
FGIEIEHTDINDNAPKFQAENLDV	4.74
FGIEIEVTDINDNAPKFQAENLDA	3.48
FGIEIEVTDINSNAPKFQAENLDV	2.25
FGIEIEVTDINDNAPKFQASNLDV	2.71
FGIEIEVTDINDNAPKFQAEKLDV	3.25
FGIEIEVTDINDNAPKFQIENLDV	2.26
FGIEIEVTDINDNAPKQQAENLDV	4.14
FGIEIEVTDINDNAPKFQAANLDV	2.15
FGIEIEVTDINDNAPKFQYENLDV	1.95
FGIEIEVTDINDNAPKFQAENLMV	2.52
FGIEIEVFDINDNAPKFQAENLDV	1.68
FGIEIEVTDINDNAPKFQAENLNV	2.85
FGIEIEVLDINDNAPKFQAENLDV	1.89
LGIEIEVTDINDNAPKFQAENLDV	3.05
GGIEIEVTDINDNAPKFQAENLDV	4.49
FGIEIEVTDINDNAPKFQMENLDV	2.53
FGAEIEVTDINDNAPKFQAENLDV	4.52
FGIEIEVTDINDNAPKFCAENLDV	2.44
FCIEIEVTDINDNAPKFQAENLDV	2
FGIEIEVTDINDNAKKFQAENLDV	3.51
FGIEINVTDINDNAPKFQAENLDV	3.02
PGIEIEVTDINDNAPKFQAENLDV	5.08
FGIEIEVTDINDNALKFQAENLDV	2.41
FGIEIEVTDINDNAPKFQPENLDV	2.6
FGIEIEVTDINDNAPKFQAPNLDV	2.13
FGIVIEVTDINDNAPKFQAENLDV	2.24
FGTEIEVTDINDNAPKFQAENLDV	4.65
FGIEIECTDINDNAPKFQAENLDV	3.75
TGIEIEVTDINDNAPKFQAENLDV	4.93

src = the supplement of paper PMC10567573
